Values compiled from patent US20240209089A1.

target: T1, CD8α-cHis fusion protein (UniProt P01732 22-182); experiment: BLI (ForteBio Octet), biotinylated antibody on SA sensor, CD8α-chis 6.25-100 nM
T1 construct: not shown: C-terminal His tag
T1 sequence (P01732 22-182): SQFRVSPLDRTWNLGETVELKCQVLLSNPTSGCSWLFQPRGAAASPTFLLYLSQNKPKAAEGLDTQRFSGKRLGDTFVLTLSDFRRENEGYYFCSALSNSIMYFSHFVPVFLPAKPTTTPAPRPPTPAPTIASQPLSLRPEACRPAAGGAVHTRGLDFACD
measuredQuantity: koff

C46-cHis antibody (VHH, HEK293 construct; an E. coli preparation is also described; Biotinylated for the ForteBio assay; also called SNA006c; SNA006-c) VHH: QVQLVESGGGLVQAGGSLRLSCAASGVTFDDLAIGWFRQVPGKGREGVSTIGTSDGTAYYADSVKGRFTISSDNAKNTVYLQMNSLKPEDTAVYYCAVDLDYGLGSLLPMGYDYWGQGTQVTVSS ... 0.000271 s⁻¹
C37-cHis antibody (VHH, HEK293 construct; an E. coli preparation is also described; Biotinylated for the ForteBio assay; also called C37-his; SNA006a) VHH: QLQLVESGGGLVQAGGSLRLSCAASGLTFEDYAIGWFRQAPGKEREGISCIRIYDGNTYSAESVKGRFTISSDNAKNQVYLQINTLKPEDTAVYYCAAGSYYSCSVYPDYDMDYWGKGTLVTVSS ... 0.000311 s⁻¹
C42-cHis antibody (VHH, HEK293 construct; an E. coli preparation is also described; Biotinylated for the ForteBio assay; also called SNA006b; SNA006-b) VHH: QVQLVESGGGLVQAGGSLRLSCAASGLTFEDYAIGWFRQAPGKEREGISCIRIYDGNTYSAESVKGRFTISSDNAKNQVYLQINTLKPEDTAVYYCAAGSYYSCSVYPDYDMDYWGKGTLVTVSS ... 0.00042 s⁻¹

Shift focus to the following entry.
Req: What koff value was documented for this binder, S5-cHis antibody (VHH, HEK293 construct; an E. coli preparation is also described; Biotinylated for the ForteBio assay; also called SNA006d; SNA006-d) VHH: QVQLVESGGGLVQAGGSLRVSCAASGGTFSSTAMGWFRQAPGKEREFVAAISWSGGYTYYADSVRGRFTISRDNALNTVSLQMNSLKPEDTAVYYCAADISGLDTVAAGIFTEPNIDYWGKGTLVTVSS ?
Resp: 0.000445 s⁻¹
